Each item that follows carries a reported IC50.
# TARGET_DESC: Human Full Length PARG (Homo sapiens (Human), UniProt Q86W56)
# Sequence (Q86W56 whole entry): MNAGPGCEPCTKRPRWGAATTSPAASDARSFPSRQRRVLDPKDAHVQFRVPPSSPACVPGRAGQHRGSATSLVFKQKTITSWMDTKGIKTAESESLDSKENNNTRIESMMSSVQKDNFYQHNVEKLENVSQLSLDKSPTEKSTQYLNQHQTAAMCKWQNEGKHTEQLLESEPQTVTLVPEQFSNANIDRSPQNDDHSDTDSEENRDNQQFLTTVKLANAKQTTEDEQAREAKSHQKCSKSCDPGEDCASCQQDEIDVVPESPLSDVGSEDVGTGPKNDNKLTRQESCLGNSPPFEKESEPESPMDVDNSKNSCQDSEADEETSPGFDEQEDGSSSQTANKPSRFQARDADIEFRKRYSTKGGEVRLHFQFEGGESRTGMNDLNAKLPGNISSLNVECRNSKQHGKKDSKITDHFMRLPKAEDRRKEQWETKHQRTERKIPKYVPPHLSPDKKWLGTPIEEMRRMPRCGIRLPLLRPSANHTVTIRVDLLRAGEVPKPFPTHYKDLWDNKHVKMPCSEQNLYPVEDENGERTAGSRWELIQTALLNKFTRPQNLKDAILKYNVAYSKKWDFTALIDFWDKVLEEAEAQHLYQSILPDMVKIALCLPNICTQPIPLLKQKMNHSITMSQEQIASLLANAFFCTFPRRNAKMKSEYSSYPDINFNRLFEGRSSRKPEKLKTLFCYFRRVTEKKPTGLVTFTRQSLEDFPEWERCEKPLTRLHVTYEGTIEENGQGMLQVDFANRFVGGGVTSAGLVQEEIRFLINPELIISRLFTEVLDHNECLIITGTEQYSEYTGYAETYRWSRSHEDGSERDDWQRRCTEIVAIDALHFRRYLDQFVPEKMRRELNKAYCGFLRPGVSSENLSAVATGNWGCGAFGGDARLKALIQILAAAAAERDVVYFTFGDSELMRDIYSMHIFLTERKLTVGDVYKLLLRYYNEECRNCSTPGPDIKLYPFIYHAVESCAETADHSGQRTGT
# TEST_DETAILS: PARG enzyme assay (TR-FRET)
# Format: biochemical
# CONDITION_DESCRIPTION: read-out: PARG Biochem IC50 Geomean

COMPOUND_STRING: Cn1c(=O)n(CC(=O)N2CCC[C@H]2C(N)=O)c(=O)c2cc(S(=O)(=O)NC3(C)CC3)ccc21
TARGET_DESC: Human Full Length PARG (Homo sapiens (Human), UniProt Q86W56)
IC50 [nM]: 5470
//
COMPOUND_STRING: Cc1cc(Cn2c(=O)n(CC#N)c(=O)c3cc(S(=O)(=O)NC4(C)CC4)ccc32)n(C)n1
TARGET_DESC: Human Full Length PARG (Homo sapiens (Human), UniProt Q86W56)
IC50 [nM]: 274
//
COMPOUND_STRING: Cc1ncc(Cn2c(=O)c3cc(S(=O)(=O)NC4(C)CC4)ccc3n(Cc3cc(C(F)(F)F)nn3C)c2=O)s1
TARGET_DESC: Human Full Length PARG (Homo sapiens (Human), UniProt Q86W56)
IC50 [nM]: 55
//
COMPOUND_STRING: Cc1noc(Cn2c(=O)c3cc(S(=O)(=O)NC4(C)CC4)ccc3n(C)c2=O)n1
TARGET_DESC: Human Full Length PARG (Homo sapiens (Human), UniProt Q86W56)
IC50 [nM]: 3180
//
COMPOUND_STRING: Cn1c(=O)n(Cc2cnn(CC#N)c2)c(=O)c2cc(S(=O)(=O)NC3(C)CC3)ccc21
TARGET_DESC: Human Full Length PARG (Homo sapiens (Human), UniProt Q86W56)
IC50 [nM]: 365
//
COMPOUND_STRING: Cc1cc(Cn2c(=O)c3cc(S(=O)(=O)NC4(C)CC4)ccc3n(Cc3ccc(F)cc3)c2=O)on1
TARGET_DESC: Human Full Length PARG (Homo sapiens (Human), UniProt Q86W56)
IC50 [nM]: 92
//
COMPOUND_STRING: Cn1c(=O)c2cc(S(=O)(=O)NC3(C)CC3)ccc2n(Cc2cccc(C#N)c2)c1=O
TARGET_DESC: Human Full Length PARG (Homo sapiens (Human), UniProt Q86W56)
IC50 [nM]: 1140
//
COMPOUND_STRING: Cn1c(=O)[nH]c2cc(F)c(S(=O)(=O)NC3(C)CC3)cc2c1=O
TARGET_DESC: Human Full Length PARG (Homo sapiens (Human), UniProt Q86W56)
IC50 [nM]: 1560

---

# System: PARG in HeLa cell line
# TEST_DETAILS: PARG cell assay (PAR chain immunofluorescence after MMS)
# Format: cell-based
# CONDITION_DESCRIPTION: Homo sapiens; HeLa cells, MMS 50 μg/mL; read-out: PARG Cell IC50 Geomean
pIC50: −log10 of the molar value.
ENDPOINT_NAME: pIC50

MOLECULE: CSCCn1c(=O)n(Cc2cc(C)no2)c(=O)c2cc(S(=O)(=O)NC3(C)CC3)ccc21
TARGET_DESC: PARG in HeLa cell line
ENDPOINT_NAME: pIC50
NUMERIC_READOUT: 6.90
//
MOLECULE: Cn1c(=O)c2cc(S(=O)(=O)NC3(C)CC3)ccc2n(Cc2ccccc2C#N)c1=O
TARGET_DESC: PARG in HeLa cell line
ENDPOINT_NAME: pIC50
NUMERIC_READOUT: 6.51
//
MOLECULE: Cn1cc(Cn2c(=O)c3cc(S(=O)(=O)NC4(C#N)CC4)ccc3n(CC3CCOC3)c2=O)cn1 (stereo not drawn)
TARGET_DESC: PARG in HeLa cell line
ENDPOINT_NAME: pIC50
NUMERIC_READOUT: 5.40
//
MOLECULE: Cc1cc(Cn2c(=O)n(C)c(=O)c3cc(S(=O)(=O)NC4(C)CC4)ccc32)n(C)n1
TARGET_DESC: PARG in HeLa cell line
ENDPOINT_NAME: pIC50
NUMERIC_READOUT: 6.38
//
MOLECULE: Cn1cc(Cn2c(=O)c3cc(S(=O)(=O)NC4(C)CC4)ccc3n(CC3(C)CC3(F)F)c2=O)cn1 (stereo not drawn)
TARGET_DESC: PARG in HeLa cell line
ENDPOINT_NAME: pIC50
NUMERIC_READOUT: 6.89
//
MOLECULE: Cc1cc(Cn2c(=O)n(Cc3cnn(C)c3)c(=O)c3cc(S(=O)(=O)NC4(C#N)CC4)ccc32)on1
TARGET_DESC: PARG in HeLa cell line
ENDPOINT_NAME: pIC50
NUMERIC_READOUT: 5.96
//
MOLECULE: Cn1cc(Cn2c(=O)c3cc(S(=O)(=O)NC4(C)CC4)ccc3n(CC3CCCCC3)c2=O)cn1
TARGET_DESC: PARG in HeLa cell line
ENDPOINT_NAME: pIC50
NUMERIC_READOUT: 6.99
//
MOLECULE: CNCCCn1c(=O)n(Cc2cc(C)no2)c(=O)c2cc(S(=O)(=O)NC3(C)CC3)ccc21
TARGET_DESC: PARG in HeLa cell line
ENDPOINT_NAME: pIC50
NUMERIC_READOUT: 6.48
//
MOLECULE: Cc1cc(Cn2c(=O)c3cc(S(=O)(=O)NC4(C)CC4)ccc3n(CC3CCN(C)CC3)c2=O)on1
TARGET_DESC: PARG in HeLa cell line
ENDPOINT_NAME: pIC50
NUMERIC_READOUT: 5.95
//
MOLECULE: Cc1cc(Cn2c(=O)n(Cc3cnn(C)c3)c(=O)c3cc(S(=O)(=O)NC4(C#N)CC4)ccc32)n(C)n1
TARGET_DESC: PARG in HeLa cell line
ENDPOINT_NAME: pIC50
NUMERIC_READOUT: 5.54
//
MOLECULE: Cc1cc(Cn2c(=O)c3cc(S(=O)(=O)NC4(C)CC4)ccc3n(CC3CCCCN3C)c2=O)on1 (stereo not drawn)
TARGET_DESC: PARG in HeLa cell line
ENDPOINT_NAME: pIC50
NUMERIC_READOUT: 6.52
//
MOLECULE: Cc1cc(Cn2c(=O)c3cc(S(=O)(=O)NC4(C)CC4)ccc3n(CC3CC3(F)F)c2=O)on1 (stereo not drawn)
TARGET_DESC: PARG in HeLa cell line
ENDPOINT_NAME: pIC50
NUMERIC_READOUT: 6.97
//
MOLECULE: Cn1cc(Cn2c(=O)c3cc(S(=O)(=O)NC4(C#N)CC4)ccc3n(C)c2=O)cn1
TARGET_DESC: PARG in HeLa cell line
ENDPOINT_NAME: pIC50
NUMERIC_READOUT: 5.68
//
MOLECULE: CCC#CCn1c(=O)n(C)c(=O)c2cc(S(=O)(=O)NC3(C)CC3)ccc21
TARGET_DESC: PARG in HeLa cell line
ENDPOINT_NAME: pIC50
NUMERIC_READOUT: 6.22
//
MOLECULE: Cc1ncc(Cn2c(=O)[nH]c3ccc(S(=O)(=O)NC4(C#N)CC4)cc3c2=O)s1
TARGET_DESC: PARG in HeLa cell line
ENDPOINT_NAME: pIC50
NUMERIC_READOUT: 5.08
//
MOLECULE: Cn1cc(Cn2c(=O)c3cc(S(=O)(=O)NC4(C)CC4)c(F)cc3n(CC3CCOC3)c2=O)cn1 (stereo not drawn)
TARGET_DESC: PARG in HeLa cell line
ENDPOINT_NAME: pIC50
NUMERIC_READOUT: 6.81
//
MOLECULE: Cn1cc(Cn2c(=O)[nH]c3cc(F)c(S(=O)(=O)NC4(C#N)CC4)cc3c2=O)cn1
TARGET_DESC: PARG in HeLa cell line
ENDPOINT_NAME: pIC50
NUMERIC_READOUT: 5.82
//
MOLECULE: Cc1ncc(Cn2c(=O)c3cc(S(=O)(=O)NC4(C)CC4)ccc3n(Cc3ccc(F)cc3)c2=O)s1
TARGET_DESC: PARG in HeLa cell line
ENDPOINT_NAME: pIC50
NUMERIC_READOUT: 7.07
//
MOLECULE: Cc1cc(Cn2c(=O)c3cc(S(=O)(=O)NC4(C)CC4)ccc3n(CC3CCN(C)C3)c2=O)on1 (stereo not drawn)
TARGET_DESC: PARG in HeLa cell line
ENDPOINT_NAME: pIC50
NUMERIC_READOUT: 5.85
//
MOLECULE: Cc1cc(Cn2c(=O)n(Cc3cnn(C)c3)c(=O)c3cc(S(=O)(=O)NC4(C)CC4)c(F)cc32)n(C)n1
TARGET_DESC: PARG in HeLa cell line
ENDPOINT_NAME: pIC50
NUMERIC_READOUT: 6.95
//
MOLECULE: Cn1cc(Cn2c(=O)c3cc(S(=O)(=O)NC4(C)CC4)ccc3n(CC3CC(C)(C)O3)c2=O)cn1 (stereo not drawn)
TARGET_DESC: PARG in HeLa cell line
ENDPOINT_NAME: pIC50
NUMERIC_READOUT: 6.45
//
MOLECULE: Cc1cc(Cn2c(=O)n(Cc3c(C)noc3C)c(=O)c3cc(S(=O)(=O)NC4(C)CC4)ccc32)n(C)n1
TARGET_DESC: PARG in HeLa cell line
ENDPOINT_NAME: pIC50
NUMERIC_READOUT: 6.64
//
MOLECULE: Cn1cc(Cn2c(=O)c3cc(S(=O)(=O)NC4(C)CC4)c(F)cc3n(C)c2=O)cn1
TARGET_DESC: PARG in HeLa cell line
ENDPOINT_NAME: pIC50
NUMERIC_READOUT: 6.74
//
MOLECULE: CSCCn1c(=O)n(Cc2cnn(C)c2)c(=O)c2cc(S(=O)(=O)NC3(C)CC3)ccc21
TARGET_DESC: PARG in HeLa cell line
ENDPOINT_NAME: pIC50
NUMERIC_READOUT: 7.52
//
MOLECULE: Cn1c(=O)n(Cc2cn[nH]c2)c(=O)c2cc(S(=O)(=O)NC3(C)CC3)ccc21
TARGET_DESC: PARG in HeLa cell line
ENDPOINT_NAME: pIC50
NUMERIC_READOUT: 6.03
//
MOLECULE: CN(C)C(=O)Cn1c(=O)n(Cc2cnn(C)c2)c(=O)c2cc(S(=O)(=O)NC3(C)CC3)ccc21
TARGET_DESC: PARG in HeLa cell line
ENDPOINT_NAME: pIC50
NUMERIC_READOUT: 5.19
//
MOLECULE: Cc1cc(Cn2c(=O)c3cc(S(=O)(=O)NC4(C)CC4)ccc3n(CCC(N)=O)c2=O)on1
TARGET_DESC: PARG in HeLa cell line
ENDPOINT_NAME: pIC50
NUMERIC_READOUT: 5.24
//
MOLECULE: Cn1cc(Cn2c(=O)n(C)c(=O)c3cc(S(=O)(=O)NC4(C)CC4)ccc32)cn1
TARGET_DESC: PARG in HeLa cell line
ENDPOINT_NAME: pIC50
NUMERIC_READOUT: 6.28
//
MOLECULE: Cc1ncc(Cn2c(OCC3CC3)nc3ccc(S(=O)(=O)NC4(C)CC4)cc3c2=O)s1
TARGET_DESC: PARG in HeLa cell line
ENDPOINT_NAME: pIC50
NUMERIC_READOUT: 6.86
//
MOLECULE: Cn1cc(Cn2c(=O)c3cc(S(=O)(=O)NC4(C)CC4)ccc3n(CC3CCCO3)c2=O)cn1 (stereo not drawn)
TARGET_DESC: PARG in HeLa cell line
ENDPOINT_NAME: pIC50
NUMERIC_READOUT: 6.88

These entries and their values trace back to patent US10239843B2.
